Measured AC50, listed per entry for reference.
target: 5-hydroxytryptamine receptor 2B (Homo sapiens); type: functional, cell-based; further: assay procedure not described here
Sequence (P41595 whole entry): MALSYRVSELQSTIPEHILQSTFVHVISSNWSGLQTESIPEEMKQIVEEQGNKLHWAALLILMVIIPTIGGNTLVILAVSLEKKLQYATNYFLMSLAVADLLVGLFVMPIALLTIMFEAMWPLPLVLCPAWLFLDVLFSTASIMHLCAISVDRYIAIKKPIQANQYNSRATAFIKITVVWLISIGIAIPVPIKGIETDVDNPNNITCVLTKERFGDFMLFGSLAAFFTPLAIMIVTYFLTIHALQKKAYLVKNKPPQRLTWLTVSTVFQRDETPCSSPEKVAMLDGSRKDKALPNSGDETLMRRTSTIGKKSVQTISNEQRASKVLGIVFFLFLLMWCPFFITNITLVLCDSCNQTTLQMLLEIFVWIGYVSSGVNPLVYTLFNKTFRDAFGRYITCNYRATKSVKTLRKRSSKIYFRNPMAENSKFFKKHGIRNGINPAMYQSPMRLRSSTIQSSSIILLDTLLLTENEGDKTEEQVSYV
Where a SMILES comes first, the peptide text is derived from it. [ ]: non-standard residue; d: D form. pGlu = O=C1CC[C@@H](C(=O)O)N1; Thz = O=C(O)[C@@H]1CSCN1

# molecule, reportedResult
records = [
    ("S=P(N1CC1)(N1CC1)N1CC1 [THIOTEPA]", "1.6 µM"),
    ("CCOc1cc([C@@H](CS(C)(=O)=O)N2C(=O)c3cccc(NC(C)=O)c3C2=O)ccc1OC", "4.5 µM"),
    ("CCCCCCCC(=O)CC[C@@H]1[C@@H](C/C=C\\CCCC(=O)OC(C)C)[C@@H](O)C[C@H]1O [UNOPROSTONE ISOPROPYL]", "0.89 µM"),
    ("Cc1cc(C)nc(NS(=O)(=O)c2ccc(N)cc2)n1 [SULFAMETHAZINE]", "> 10 µM"),
    ("C/C=C(/C(=C/C)c1ccc(O)cc1)c1ccc(O)cc1 [DIENESTROL]", "> 10 µM"),
    ("C[C@]12CCC(=O)C[C@@H]1CC[C@@H]1[C@@H]2CC[C@]2(C)[C@@H](O)CC[C@@H]12 [STANOLONE]", "> 30 µM"),
    ("CNCCc1ccc(OC(=O)C(C)C)c(OC(=O)C(C)C)c1 [IBOPAMINE]", "> 30 µM"),
    ("C[N+](C)(C)CCOP(=O)([O-])OC[C@H](O)CO", "> 30 µM"),
    ("CNC[C@H](O)c1ccc(O)c(O)c1 [EPINEPHRINE]", "> 30 µM"),
]

# ---- query molecule ----
Input: Form field: reported AC50 of O=C1CC[C@@H](C(=O)N2CSC[C@H]2C(=O)O)N1 [PIDOTIMOD] ([pGlu]-[Thz]-OH)
Output: > 30 µM

====

Quick reference for AC50 among some compounds
molecular target: UniProtKB P25021; assay type: functional, cell-based
Sequence (P25021 whole entry): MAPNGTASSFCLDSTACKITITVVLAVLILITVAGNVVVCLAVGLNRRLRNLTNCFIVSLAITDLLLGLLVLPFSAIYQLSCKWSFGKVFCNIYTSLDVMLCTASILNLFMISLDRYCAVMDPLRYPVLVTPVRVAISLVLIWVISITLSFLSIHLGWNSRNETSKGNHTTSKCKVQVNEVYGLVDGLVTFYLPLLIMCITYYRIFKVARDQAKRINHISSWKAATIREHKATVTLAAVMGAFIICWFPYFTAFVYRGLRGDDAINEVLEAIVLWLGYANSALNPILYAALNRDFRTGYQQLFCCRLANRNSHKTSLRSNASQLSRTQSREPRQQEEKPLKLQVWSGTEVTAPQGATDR

# compound, reportedResult
records = [
    ("O=C(O)Cc1ccccc1Nc1c(Cl)cccc1Cl", "> 10 µM"),
]

Now consider the entry below.
Input: Give the measured AC50 of Oc1cc(O)c(Cl)cn1 .
Output: > 30 µM

====

// reported AC50 per item
biological target: Amine oxidase [flavin-containing] A (Homo sapiens); assay type: functional; further: assay procedure not described here
Sequence (P21397 whole entry): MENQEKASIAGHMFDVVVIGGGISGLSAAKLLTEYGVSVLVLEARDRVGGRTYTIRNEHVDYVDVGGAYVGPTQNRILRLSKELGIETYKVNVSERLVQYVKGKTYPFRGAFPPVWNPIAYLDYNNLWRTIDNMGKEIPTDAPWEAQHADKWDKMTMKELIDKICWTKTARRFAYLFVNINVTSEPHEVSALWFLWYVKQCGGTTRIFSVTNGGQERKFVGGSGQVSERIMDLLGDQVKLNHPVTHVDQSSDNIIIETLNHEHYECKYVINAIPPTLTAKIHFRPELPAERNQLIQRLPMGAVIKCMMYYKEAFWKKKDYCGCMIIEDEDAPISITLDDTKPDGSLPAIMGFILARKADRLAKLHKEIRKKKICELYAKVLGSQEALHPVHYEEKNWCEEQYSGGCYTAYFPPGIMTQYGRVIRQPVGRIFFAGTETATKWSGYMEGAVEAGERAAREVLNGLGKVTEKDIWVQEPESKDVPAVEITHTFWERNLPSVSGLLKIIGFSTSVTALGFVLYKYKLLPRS

# compound, AC50
measured = [
    ("CCN1CCCC1CNC(=O)c1cc(S(=O)(=O)CC)ccc1OC (centres undefined) [SULTOPRIDE]", "> 30 µM"),
]

Input: # lookup: AC50 of CN1Cc2c(N)cccc2C(c2ccccc2)C1 (centres undefined) [NOMIFENSINE]
Output: > 30 µM

Input: Quick one: AC50 for O=C(O)c1ccc(NC(=O)[C@H](Cc2ccc(O)cc2)NC(=O)c2ccccc2)cc1 [BENTIROMIDE] ?
Output: > 10 µM

====

AC50, Glutamate receptor ionotropic, NMDA 1 (Rattus norvegicus): measured values

Past entries and their recorded results:
# compound, AC50
measured = [
    ("C[C@@H]1C[C@H]2[C@@H]3CCC4=CC(=O)C=C[C@]4(C)[C@@]3(F)[C@@H](O)C[C@]2(C)[C@@]1(O)C(=O)CO [DEXAMETHASONE]", "> 10 µM"),
    ("CC(C)[C@@H](C)/C=C/[C@@H](C)[C@H]1CC[C@H]2/C(=C/C=C3\\C[C@@H](O)CC[C@@H]3C)CCC[C@]12C [DIHYDROTACHYSTEROL]", "> 10 µM"),
    ("C=CC[N+]1([C@H]2C[C@H]3[C@@H]4CC[C@H]5C[C@H](O)[C@@H](N6CCOCC6)C[C@]5(C)[C@H]4CC[C@]3(C)[C@H]2OC(C)=O)CCCC1 [ROCURONIUM]", "> 30 µM"),
]

# ---- query compound ----
Input: # query: AC50 of entry CCOC(=O)[C@@H](N)Cc1ccc(-c2cc(O[C@H](c3ccc(Cl)cc3-n3ccc(C)n3)C(F)(F)F)nc(N)n2)cc1 [TELOTRISTAT ETHYL]
Output: > 30 µM

====

Quick reference: AC50 of the listed items.
biological target: Voltage-gated inwardly rectifying potassium channel KCNH2 (Homo sapiens); format: functional; further: assay procedure not described here
Sequence (Q12809 whole entry): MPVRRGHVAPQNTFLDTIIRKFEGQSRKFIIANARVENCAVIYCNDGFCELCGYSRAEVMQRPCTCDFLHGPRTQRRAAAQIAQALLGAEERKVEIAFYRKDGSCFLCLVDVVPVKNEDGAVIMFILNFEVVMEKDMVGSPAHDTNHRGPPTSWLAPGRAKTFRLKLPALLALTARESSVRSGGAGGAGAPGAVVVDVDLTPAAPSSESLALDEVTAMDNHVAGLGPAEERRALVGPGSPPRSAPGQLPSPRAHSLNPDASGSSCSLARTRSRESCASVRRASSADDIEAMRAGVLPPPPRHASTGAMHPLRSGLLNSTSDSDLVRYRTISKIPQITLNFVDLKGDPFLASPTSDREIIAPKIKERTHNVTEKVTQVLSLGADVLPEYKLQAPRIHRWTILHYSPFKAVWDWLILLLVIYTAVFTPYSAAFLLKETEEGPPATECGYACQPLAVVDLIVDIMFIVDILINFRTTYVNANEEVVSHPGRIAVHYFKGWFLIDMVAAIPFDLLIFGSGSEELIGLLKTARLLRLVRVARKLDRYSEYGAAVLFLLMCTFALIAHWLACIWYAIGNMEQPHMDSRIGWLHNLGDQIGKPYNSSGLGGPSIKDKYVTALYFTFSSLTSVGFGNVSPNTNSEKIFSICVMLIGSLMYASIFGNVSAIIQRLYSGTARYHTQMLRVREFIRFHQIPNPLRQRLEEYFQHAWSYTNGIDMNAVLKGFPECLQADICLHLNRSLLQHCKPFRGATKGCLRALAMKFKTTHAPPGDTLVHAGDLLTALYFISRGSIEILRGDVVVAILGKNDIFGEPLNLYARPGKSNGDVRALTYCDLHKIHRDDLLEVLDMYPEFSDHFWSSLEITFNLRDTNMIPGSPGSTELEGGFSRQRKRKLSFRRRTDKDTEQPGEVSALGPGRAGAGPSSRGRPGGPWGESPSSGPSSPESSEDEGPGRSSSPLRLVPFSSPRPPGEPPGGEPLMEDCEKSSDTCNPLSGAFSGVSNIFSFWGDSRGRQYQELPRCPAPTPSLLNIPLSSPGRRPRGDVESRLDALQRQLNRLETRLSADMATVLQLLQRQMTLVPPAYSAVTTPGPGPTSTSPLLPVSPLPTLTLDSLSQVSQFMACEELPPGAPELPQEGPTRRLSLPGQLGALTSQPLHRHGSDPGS

// solved cases for AC50 follow
# compound, measuredMetric, reportedResult
measured = [
    ("Cc1ccnc2c1NC(=O)c1cccnc1N2C1CC1", "AC50", "> 30 µM"),
    ("CC(C)(Oc1ccc(CCNC(=O)c2ccc(Cl)cc2)cc1)C(=O)O [BEZAFIBRATE]", "AC50", "> 30 µM"),
]

Below: the item to evaluate.
Input: Please look up its AC50: C[C@H]1CN(C[C@H](Cc2ccccc2)C(=O)NCC(=O)O)CC[C@@]1(C)c1cccc(O)c1
Output: > 30 µM

====

Here, each record is paired with measured AC50 data.
target: Melanocortin receptor 4 (Homo sapiens, UniProt P32245); further: assay procedure not described here
Sequence (P32245 whole entry): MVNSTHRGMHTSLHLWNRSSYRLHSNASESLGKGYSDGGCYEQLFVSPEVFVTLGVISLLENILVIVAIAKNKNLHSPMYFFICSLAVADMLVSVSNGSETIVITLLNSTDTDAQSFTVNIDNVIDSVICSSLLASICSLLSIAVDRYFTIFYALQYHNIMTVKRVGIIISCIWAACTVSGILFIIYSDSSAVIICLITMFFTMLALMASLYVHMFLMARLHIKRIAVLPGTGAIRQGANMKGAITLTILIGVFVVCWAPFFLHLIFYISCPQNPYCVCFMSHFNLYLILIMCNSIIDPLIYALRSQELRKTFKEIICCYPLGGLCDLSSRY

# compound, AC50
data = [
    ("O=C(/C=C/c1cccc(S(=O)(=O)Nc2ccccc2)c1)NO [BELINOSTAT]", "> 30 µM"),
    ("O=C1c2ccccc2C(=O)C1c1ccccc1 [PHENINDIONE]", "> 10 µM"),
    ("CCOC(=O)c1ccc(C#Cc2ccc3c(c2)C(C)(C)CCS3)nc1 [TAZAROTENE]", "> 30 µM"),
    ("NNC(=O)c1ccncc1 [ISONIAZID]", "> 30 µM"),
]

Input: Can you look up AC50 on Melanocortin receptor 4 (Homo sapiens, UniProt P32245) for Fc1ccc([C@@H]2CCNC[C@H]2COc2ccc3c(c2)OCO3)cc1 [PAROXETINE] ?
Output: > 30 µM

Input: Lab note: need AC50 for O=C(O)c1cccnc1Nc1cccc(C(F)(F)F)c1 [NIFLUMIC ACID] on Melanocortin receptor 4 (Homo sapiens, UniProt P32245), anyone have it?
Output: > 10 µM

Input: So what AC50 did Cc1cc(=O)n(-c2ccccc2)n1C [ANTIPYRINE] get with Melanocortin receptor 4 (Homo sapiens, UniProt P32245)?
Output: > 30 µM

Input: Query AC50 on Melanocortin receptor 4 (Homo sapiens, UniProt P32245) for CC(c1cc2ccccc2s1)N(O)C(N)=O (stereo unspecified) [ZILEUTON]
Output: > 10 µM

Input: Form field: AC50 recorded for CCC[C@@H]1C[C@@H](C(=O)N[C@@H]([C@H]2O[C@H](SC)[C@H](O)[C@@H](O)[C@H]2O)[C@@H](C)O)N(C)C1 [LINCOMYCIN] with Melanocortin receptor 4 (Homo sapiens, UniProt P32245) (enter value)
Output: > 10 µM

====

Target: Muscarinic acetylcholine receptor M2 (Homo sapiens); further: assay procedure not described here
Sequence (P08172 whole entry): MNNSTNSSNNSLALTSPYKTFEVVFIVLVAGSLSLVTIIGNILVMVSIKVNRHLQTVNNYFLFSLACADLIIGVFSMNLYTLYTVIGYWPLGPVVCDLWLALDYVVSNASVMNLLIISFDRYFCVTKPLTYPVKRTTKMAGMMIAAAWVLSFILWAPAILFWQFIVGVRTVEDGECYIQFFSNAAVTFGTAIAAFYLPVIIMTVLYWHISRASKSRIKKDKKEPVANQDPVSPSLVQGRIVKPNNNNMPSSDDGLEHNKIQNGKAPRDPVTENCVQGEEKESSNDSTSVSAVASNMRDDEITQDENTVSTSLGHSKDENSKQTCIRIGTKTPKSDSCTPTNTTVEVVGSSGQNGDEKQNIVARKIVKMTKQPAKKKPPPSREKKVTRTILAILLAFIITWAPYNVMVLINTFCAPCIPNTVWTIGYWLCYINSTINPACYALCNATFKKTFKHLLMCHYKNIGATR
AC50 for assorted molecules

The following molecules have reported results that may help.
# molecule, AC50
rows = [
    ("Cc1ccc(S(=O)(=O)NC(=O)NC2CCCCC2)cc1 [GLYCYCLAMIDE]", "> 30 µM"),
    ("N[C@@H](Cc1ccccc1)C(=O)O", "> 30 µM"),
    ("CC(=O)[C@H]1CC[C@H]2[C@@H]3C=CC4=CC(=O)CC[C@@]4(C)[C@@H]3CC[C@]12C", "> 30 µM"),
]

Input: Which AC50 is listed for CC(C)(C)NC(=O)N[C@H](C(=O)N1C[C@H]2[C@@H]([C@H]1C(=O)NC(CC1CCC1)C(=O)C(N)=O)C2(C)C)C(C)(C)C (stereo partly specified) ?
Output: > 30 µM

Input: Please look up its AC50: O=C(O)Cc1ccccc1Nc1c(Cl)cccc1Cl
Output: > 3 µM

Input: Please give the measured AC50 for this molecule: CC[C@]12CCCN3CCc4c(n(c5ccccc45)[C@@](O)(C(=O)OC)C1)[C@@H]32
Output: > 30 µM

====

Here, each record is paired with measured AC50 data.
molecular target: Neuronal acetylcholine receptor subunit alpha-4 (Homo sapiens); further: assay procedure not described here
Sequence (P43681 whole entry): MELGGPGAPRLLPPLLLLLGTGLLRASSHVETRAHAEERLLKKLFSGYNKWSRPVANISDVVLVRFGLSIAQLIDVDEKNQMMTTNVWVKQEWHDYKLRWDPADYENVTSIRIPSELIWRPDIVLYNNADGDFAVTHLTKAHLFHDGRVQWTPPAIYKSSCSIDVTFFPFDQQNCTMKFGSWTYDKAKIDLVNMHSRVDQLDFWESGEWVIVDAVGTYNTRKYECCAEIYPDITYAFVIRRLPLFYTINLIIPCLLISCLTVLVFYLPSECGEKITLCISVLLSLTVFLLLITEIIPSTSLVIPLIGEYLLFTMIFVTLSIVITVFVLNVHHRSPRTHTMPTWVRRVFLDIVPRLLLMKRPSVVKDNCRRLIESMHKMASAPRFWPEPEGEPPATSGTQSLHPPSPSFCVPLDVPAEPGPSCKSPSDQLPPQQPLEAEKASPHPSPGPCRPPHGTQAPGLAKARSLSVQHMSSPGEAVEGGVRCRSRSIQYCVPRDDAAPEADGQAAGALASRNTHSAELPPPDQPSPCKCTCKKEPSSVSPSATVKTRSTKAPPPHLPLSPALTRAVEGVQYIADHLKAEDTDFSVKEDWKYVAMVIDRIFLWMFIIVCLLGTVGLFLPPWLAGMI

Would you please look over these solved cases?
# compound, AC50
rows = [
    ("CC(C(=O)O)c1ccc2c(c1)CC(=O)c1ccccc1S2 (configuration not stated) [ZALTOPROFEN]", "> 30 µM"),
    ("Cc1nc(Nc2ncc(C(=O)Nc3c(C)cccc3Cl)s2)cc(N2CCN(CCO)CC2)n1 [DASATINIB]", "> 30 µM"),
    ("O=C(O)Cc1ccccc1Oc1ccc(Cl)cc1Cl [FENCLOFENAC]", "> 10 µM"),
    ("C[C@@H]1C[C@H]2[C@@H]3CCC4=CC(=O)C=C[C@]4(C)[C@@]3(F)[C@@H](O)C[C@]2(C)[C@@]1(O)C(=O)CO [DEXAMETHASONE]", "> 30 µM"),
    ("COc1cc(C(=O)OCc2cccc(COC(=O)c3cc(OC)c(OC)c(OC)c3)n2)cc(OC)c1OC [PIROZADIL]", "> 30 µM"),
]

Input: Write down the reported AC50 of CCCC(C)(COC(N)=O)COC(N)=O [MEPROBAMATE] , test system: Neuronal acetylcholine receptor subunit alpha-4 (Homo sapiens). Further: assay procedure not described here.
Output: > 10 µM

Input: # returns recorded AC50 (system: Neuronal acetylcholine receptor subunit alpha-4 (Homo sapiens)) for O=c1[nH]c2ccccc2n1CCCN1CCN(C(c2ccccc2)c2ccccc2)CC1 [OXATOMIDE]; further: assay procedure not described here
Output: > 30 µM

Input: Reported AC50 for Neuronal acetylcholine receptor subunit alpha-4 (Homo sapiens), given COc1cc(N)c(Cl)cc1C(=O)NC1CCN(CCCOc2ccc(F)cc2)CC1OC (configuration not stated) [CISAPRIDE] ?
Output: > 10 µM
